resultType: melting point

**Query** For the compound shown here, CN1CCN(c2cccc3c2OC(C(=O)Nc2ccc(N4CCOCC4)cc2)CC3=O)CC1 (single isomer, unassigned) [Example 80] , give the reported melting point.
**Result** 215 °C (dec.)

**Query** Also check CCS(=O)(=O)N1CCN(c2ccc(NC(=O)c3cc(=O)c4cc(F)cc(N5CCN(C)CC5)c4o3)cc2)CC1 [Example 71]
**Result** 233 to 234 °C

**Query** Also check CN1CCN(c2cccc3c(=O)cc(-c4nc5ccc(N6CCOCC6)cc5o4)oc23)CC1 [Example 21]
**Result** 158.1 to 158.8 °C

**Query** Also check COc1cc(N2CCN(C)CC2)c2oc(C(=O)Nc3ccc(N4CCOCC4)cc3)cc(=O)c2c1 [Example 31]
**Result** 234 to 236 °C

**Query** Also check CN1CCN(c2cccc3c(=O)cc(C(=O)Nc4ccc(N5CCOCC5)cc4O)oc23)CC1 [Example 22]
**Result** 248.4 to 249.6 °C

**Query** Also check CN1CCN(c2cccc3c(=O)cc(C(=O)N(C)c4ccc(N5CCOCC5)cc4)oc23)CC1 [Example 25]
**Result** 245 to 246.8 °C
